# Assay overview: gradient 5% acetonitrile 3 min, to 50% in 2 min, to 85% in 15 min, held 3 min, 100 µL/min
# Conditions used: column: Zorbax Extend-C18 2.1 x 50 mm; eluents: water / acetonitrile, 0.1% formic acid
Reported property: RP-LC retention time (s)

COc1ccc(CNC(=O)C2CCCN(C(=O)c3[nH]c(C)c(C(=O)OC(C)C)c3C)C2)cc1 (stereo not given); 812
Cc1ccc2ncn(C3CCN(S(=O)(=O)c4ccc(Cl)cc4)CC3)c(=O)c2c1; 970
Cc1cc(N2CCCC2)n2nc(CN3CCN(c4ccc(Cl)cc4)CC3)nc2n1; 654
O=C(Nc1ccccc1C(=O)NCCCN1CCN(C2CCCCC2)CC1)C1=CSCCO1; 608
CCc1nc2c(c(=O)n1CC(=O)Nc1ccc(C)cc1)CN(Cc1ccccc1)CC2; 672
Cc1ccc2c(c1)OCC(=O)N2Cc1nc(-c2cccc(F)c2)no1; 1070
CCOC(=O)c1ccc(NC(=O)Cn2c(=O)n(CC)c(=O)c3c2cc(C)n3C)cc1; 771
Cc1cccc(CNC(=O)CN2CCN(Cc3ccccc3)C2=O)c1; 808

P = CN1CCc2[nH]cnc2C12CCN(C(=O)Nc1ccc(Cl)cc1F)C2 (stereo not given)
Q = COc1ccc(OCc2nc(-c3ccc4nnn(C)c4c3)no2)cc1
Please indicate which item has the smaller measured RP-LC retention time: P versus Q Which one? Tell me its label. P
(P: 567 s, Q: 916 s)
